All values here come from patent US20240092909A1.

# Kd per entry
targetEntity: T1, Programmed cell death protein 1 (PD-1), human (human, UniProt Q15116 25-167, limits assumed)
T1 construct: also called full-length PD-1
T1 sequence (Q15116 25-167 limits assumed): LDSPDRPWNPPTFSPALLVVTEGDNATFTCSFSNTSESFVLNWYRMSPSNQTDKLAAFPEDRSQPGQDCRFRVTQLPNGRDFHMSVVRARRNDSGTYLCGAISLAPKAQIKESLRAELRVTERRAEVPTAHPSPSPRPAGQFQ
assayProcedure: SPR avidity, column 'Avidity (nM)' of the drawn table
Just the number please, in nM, no unit attached.

1-C09-1 (antibody, V domains shown, From the in vitro scFv library of immunised mice) VH: QVQLQQPGTELVRPGTSVKMSCKASGYTFTSYWMHWVKQRPGQGLEWIGVIDPSDSYTQYNQKFKGKATLTVDTSSSTAYMQLSSLTSEDSAVYYCARSPFDYWGQGTTLTVSS VL: DIVMTQSQKFMSTSVGDRVSVTCKASQNVGTNVAWYQQKPGQSPKALIYSASYRYSGIPDRFTGSGSGTDFTLTISNVQSEDLADFFCQQYNSYPFTFGGGTKLEIK; 3.7
1-H01-1 (antibody, V domains shown, From the in vitro scFv library of immunised mice; also called clone 1-H01-1) VH: QVQLQQPGAELVKPGASVKMSCKASGYTFTSYWMHWVKQRPGQGLEWIGVIDPSNSYTIYNQKFKGKATLTVDTSSSTAYMQLSSLTSEDSAVYYCARSPFDYWGQGTTLTVSS VL: DVVMTQSQKFMSTSVGDRVSVTCKASQNVGTNVAWYQQKPGQSPKALIYSASYRYSGVPDRFTGSGSGTDFTLTIRNVQSEDLAEYFCQQHNSYPFTFGGGTKLEIK; 0.44

Shifting focus to the binder that follows.
[ask] Looking for the measured Kd of 1-F09-1 (antibody, V domains shown, From the in vitro scFv library of immunised mice) VH: QVQLQQPGAEVVMPGASVKLSCKASGYTFTSYWMHWVKQRPGQGLEWIGVIDPSDSYTQYNQKFKGKATLTVDTSSSTAYMQLSSLTSEDSAVYYCARSPFDYWGQGTTLTVSS VL: DIQMNQSHKFMSTSVGDRVSITCKASQDVSTAVAWYQQKPGQSPKALIYSASNRYSGVPDRFIGSGSGTDFTLTIRNVQSEDLAEYFCQQHNSYPFTFGGGTKLEMK , can you help?
[reply] 0.46
